# Tested System: UniProt:Q8ILY1
# Sequence (Q8ILY1 entry or part of it): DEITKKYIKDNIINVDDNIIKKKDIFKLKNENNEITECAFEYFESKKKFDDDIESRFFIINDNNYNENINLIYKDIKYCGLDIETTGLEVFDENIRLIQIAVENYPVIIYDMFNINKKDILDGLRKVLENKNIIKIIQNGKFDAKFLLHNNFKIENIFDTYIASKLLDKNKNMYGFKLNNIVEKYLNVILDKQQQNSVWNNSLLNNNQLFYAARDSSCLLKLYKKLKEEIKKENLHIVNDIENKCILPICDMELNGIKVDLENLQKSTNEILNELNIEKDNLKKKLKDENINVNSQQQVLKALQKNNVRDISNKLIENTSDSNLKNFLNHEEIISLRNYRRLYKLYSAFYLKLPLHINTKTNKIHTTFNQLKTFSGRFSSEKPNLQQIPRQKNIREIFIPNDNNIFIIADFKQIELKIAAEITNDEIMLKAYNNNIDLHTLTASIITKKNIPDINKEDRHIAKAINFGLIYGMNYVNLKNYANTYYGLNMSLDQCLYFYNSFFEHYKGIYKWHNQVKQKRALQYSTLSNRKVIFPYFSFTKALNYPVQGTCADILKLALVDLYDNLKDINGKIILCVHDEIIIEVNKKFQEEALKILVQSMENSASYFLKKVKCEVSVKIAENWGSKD
# Assay Notes: Fluorescence-based high-throughput DNA polymerase assay (molecular beacon), primary screen and dose-response
# Assay type: biochemical
# Test Parameters: DRC-2, 5', concentration 80
Readout Name: % inhibition Apo pol 5' (%)
Give just the numeric value; % need not be written.

Example compounds with recorded % inhibition Apo pol 5':
{"Compound": "CCOC(=O)C(NCc1ccco1)(NC(=O)c1ccco1)C(F)(F)F (centres unmarked) [KU0276119]", "Tested System": "UniProt:Q8ILY1", "% inhibition Apo pol 5' (%)": 52}
{"Compound": "O=C(Nc1nnc(-c2ccno2)o1)c1ccc2ncsc2c1 [Molecule 62, O=C(c1ccc2c(c1)scn2)Nc1nnc(o1)c1ccno1]", "Tested System": "UniProt:Q8ILY1", "% inhibition Apo pol 5' (%)": 28}
{"Compound": "CO/N=C(\\C(=O)N[C@@H]1C(=O)N2C(C(=O)[O-])=C(CSc3nc(=O)c([O-])nn3C)CSC12)c1csc(N)n1.[Na+].[Na+] (some centres unmarked) [Molecule 83]", "Tested System": "UniProt:Q8ILY1", "% inhibition Apo pol 5' (%)": 54}

Summary line: Cc1nn(CC(=O)NCCSCc2ccco2)c(C)c1Br [KU0267182] , UniProt:Q8ILY1, reported % inhibition Apo pol 5' = 55

The compound O=C(O)c1c(F)c(F)c(-c2c(F)c(F)c(C(=O)O)c(F)c2F)c(F)c1F [KU0008974] , tested on UniProt:Q8ILY1, showed % inhibition Apo pol 5' of 35

Recorded % inhibition Apo pol 5' for CCOc1ccccc1-c1nc(-c2ccc(=O)[nH]c2)no1 [Molecule 76, CCOc1ccccc1c1onc(n1)c1ccc(=O)[nH]c1] on UniProt:Q8ILY1 was 29

Per the reported UniProt:Q8ILY1 data, CS(=O)(=O)c1cccc(C(=O)Nc2nnc(-c3ccno3)o2)c1 [KU0171319] has % inhibition Apo pol 5' of 22

Recorded % inhibition Apo pol 5' for Cc1ncc(CSc2nc(C(C)(C)C)cs2)c(CO)c1O [KU0264007] on UniProt:Q8ILY1 was 50
